Hey, just so you know, these numbers are from patent US20240245796A1.

Measured OD450, listed per entry.
target-or-test-system: T1, cynomolgus FOLR1 protein, His Tag (ACRO F01-C52H8) (cynomolgus, UniProt A0A2K5U044 25-233)
T1 construct: Bought protein coated on ELISA plates; also called Cynomolgus/Rhesus macaque FOLR1, Protein, His Tag; not shown: His tag
T1 sequence (A0A2K5U044 entry or part of it): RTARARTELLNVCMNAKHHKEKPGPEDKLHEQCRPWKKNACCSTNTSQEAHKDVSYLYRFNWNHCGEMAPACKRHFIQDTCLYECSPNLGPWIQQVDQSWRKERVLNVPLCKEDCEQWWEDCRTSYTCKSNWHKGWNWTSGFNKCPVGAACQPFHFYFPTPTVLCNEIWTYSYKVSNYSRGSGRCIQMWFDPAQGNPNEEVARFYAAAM
run-description: ELISA, coated cyno FOLR1-His, supernatant 25x
Unit OD450 implied. Number only.

For orientation, consider the following solved cases.
| binder | measurement-unit | OD450 |
| --- | --- | --- |
| F100 (antibody, V domains shown, Tested as full-length IgG with an IgG1 Fc from HEK293, as supernatant or purified; also called clone F100; anti-FOLR1 antibody F100) VH: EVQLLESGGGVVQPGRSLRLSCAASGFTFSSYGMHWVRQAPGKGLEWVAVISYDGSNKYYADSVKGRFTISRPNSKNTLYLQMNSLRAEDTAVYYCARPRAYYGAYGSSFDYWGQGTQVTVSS VL: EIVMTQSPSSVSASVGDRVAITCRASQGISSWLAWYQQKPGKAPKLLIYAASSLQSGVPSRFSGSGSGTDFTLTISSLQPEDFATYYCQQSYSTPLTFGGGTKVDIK | OD450 | 0.875 |
| F8 (antibody, V domains shown, Tested as full-length IgG with an IgG1 Fc from HEK293, as supernatant or purified; also called clone F8; anti-FOLR1 antibody F8) VH: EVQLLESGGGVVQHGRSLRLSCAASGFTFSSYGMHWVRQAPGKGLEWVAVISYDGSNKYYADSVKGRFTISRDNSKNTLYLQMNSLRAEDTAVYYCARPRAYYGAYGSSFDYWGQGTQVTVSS VL: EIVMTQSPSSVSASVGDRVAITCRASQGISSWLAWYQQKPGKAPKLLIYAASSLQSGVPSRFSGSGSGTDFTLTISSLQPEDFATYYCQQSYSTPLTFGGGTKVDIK | OD450 | 1.06 |
| F112 (antibody, V domains shown, Tested as full-length IgG with an IgG1 Fc from HEK293, as supernatant or purified; also called clone F112; anti-FOLR1 antibody F112) VH: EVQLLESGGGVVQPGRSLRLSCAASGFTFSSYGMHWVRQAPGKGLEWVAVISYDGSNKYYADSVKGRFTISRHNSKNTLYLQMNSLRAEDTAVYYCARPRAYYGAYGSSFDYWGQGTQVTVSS VL: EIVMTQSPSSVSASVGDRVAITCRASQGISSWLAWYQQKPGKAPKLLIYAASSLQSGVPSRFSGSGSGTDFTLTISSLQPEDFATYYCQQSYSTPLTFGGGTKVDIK | OD450 | 0.933 |
| F26 (antibody, V domains shown, Tested as full-length IgG with an IgG1 Fc from HEK293, as supernatant or purified; also called clone F26; anti-FOLR1 antibody F26) VH: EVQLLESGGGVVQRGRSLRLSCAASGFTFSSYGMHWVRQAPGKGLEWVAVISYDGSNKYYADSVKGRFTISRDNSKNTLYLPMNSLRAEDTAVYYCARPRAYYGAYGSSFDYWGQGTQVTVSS VL: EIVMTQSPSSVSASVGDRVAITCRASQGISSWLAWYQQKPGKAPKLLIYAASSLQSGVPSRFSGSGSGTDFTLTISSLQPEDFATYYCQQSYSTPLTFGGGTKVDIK | OD450 | 1.02 |

Consider the record given below.
Tell me OD450 reported for F1 (antibody, V domains shown, also called clone F1; anti-FOLR1 antibody F1) VH: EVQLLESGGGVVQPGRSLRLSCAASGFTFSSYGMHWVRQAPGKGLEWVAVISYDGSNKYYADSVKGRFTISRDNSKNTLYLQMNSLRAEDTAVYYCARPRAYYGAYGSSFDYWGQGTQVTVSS VL: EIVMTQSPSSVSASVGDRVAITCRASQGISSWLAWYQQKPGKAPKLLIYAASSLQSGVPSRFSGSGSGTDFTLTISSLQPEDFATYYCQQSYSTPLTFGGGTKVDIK
0.994
